# Test system: MCF 7-B (ER+)
# test_summary: In vitro cytotoxicity assay
# Assay type: cell-based
# measurement_setup: Homo sapiens; 2nd series of experiments
observed_property: IC50

entry_smiles: Nc1ccc(-c2nc3ccccc3s2)cc1
result: 62.2 µM

* * *

# System: MDA 468 mammary (ER-/EGFR+)
# test_summary: In vitro cytotoxicity assay
# Type: cell-based, human
# measurement_setup: column A; read-out: MDA 468 A IC50 at sub-micromolar concentrations
# Source text: This is illustrated in Tables 1 and 2 at the end of the present description which show in vitro test results obtained in various sets of experiments for the cytotoxic activity of this compound CJM 126 against a range of human tumour cell lines, expressed in terms of IC50 values (concentration or dosage required to reduce cell growth or proliferation by 50%) calculated from dose-effect curves plotted for cultures of the cells in question. […]

entry_smiles: CCS(=O)(=O)O.Nc1ccc(-c2nc3ccccc3s2)cc1
study_target: MDA 468 mammary (ER-/EGFR+)
IC50 (nM): 2.4
